Test system: SNB-19 CNS
Experiment: NCI-60 one-dose screen, 48 h
Details: 10 µM unless noted
Compounds without any hit were thinned out: in the full panel of roughly 83,000, 20% have a hit. The source made the active and inactive calls. The calls were made as follows: active = growth percent below 10; inactive = the rest.
Output constraint: value belongs to t = active, f = inactive

State the result this test recorded for O=C(N/N=C/c1ccccc1Cl)c1ccccc1Nc1ccnc(C(F)(F)F)c1 .
f

Record request — test call for C[C@@H]1N=C(c2ccc(Cl)cc2Cl)Nc2nc3ccccn3c2C1=O
f

# fetch the recorded call for COC(=O)[C@H](C)NC(=O)[C@@H]1CCCN1C(=O)CNC(=O)[C@H](C)N here
f

I would be grateful if you could indicate the recorded call for CCN(CC)CCCNC(=O)c1c2c(n3ccccc13)C(=O)c1ncccc1C2=O .
t

For this compound, state the assay outcome: O=C1/C(=C/c2cccc(Br)c2)COc2ccc(O)c(O)c21
t

Hey, what did the test say about CC1OC(C(=O)N2CCN(CCO)CC2)CC1COC1CCCCC1 (stereo not given) ?
f

State the result this test recorded for Cc1c(C)c2c(c(C)c1OC(=O)CCC(=O)[O-])CCC(C)(CCCCCCCCCCC[P+](c1ccccc1)(c1ccccc1)c1ccccc1)O2 (stereo not given) .
t

Just curious, what result did COc1cccc(-c2nn(-c3ccccc3)cc2-c2ccnc(-c3cccnc3)c2)c1 get here?
f

Called result for CCN1C(=O)N(CC)C2C1NN=c1s/c(=C\c3ccc([N+](=O)[O-])cc3)c(=O)n12 (stereo not given)
f

// outcome(item) with item = Cn1cc(-c2nc(-c3c[nH]c4ccncc34)cs2)c2cc(F)ccc21
t
